Measured pEC50, listed per entry for reference.
Test system: MCF7
Test: Decrease in estrogen receptor alpha level in human MCF7 cells after 4 hrs by in-cell western assay
Assay type: functional, cell-based
Details: MCF7, 4 h
// returns pEC50 (minus log10 of molar concentration), number only

CS(=O)(=O)c1ccc(/C(=C(\c2ccc(/C=C/C(=O)O)cc2)c2ccc3[nH]nc(F)c3c2)C2CCC2)c(Cl)c1 : 9.05
O=C(O)/C=C/c1ccc(/C(=C(\c2ccccc2)C2CCCCC2)c2ccc3[nH]ncc3c2)cc1 : 7.60
O=C(O)/C=C/c1ccc(/C(=C(\c2ncc(Cl)cc2Cl)C2CCC2)c2ccc3[nH]nc(F)c3c2)cc1 : 9.10

Pending molecule:
Could you please provide reported pEC50 for Cc1cccnc1/C(=C(\c1ccc(/C=C/C(=O)O)cc1)c1ccc2[nH]nc(F)c2c1)C1CCC1 ? Thanks!
9.10
